- assayed target: T1, Recombinant MBP-mutCALR Type 1 fusion protein (human)
- T1 construct: custom made at Cepter; also called recombinant mutCALR protein
- test details: SPR, IgG captured, 1:1 fit, Exp. 1
readout kind: kon (M⁻¹ s⁻¹)
Numeric answer only, unit M⁻¹ s⁻¹ assumed.

Query: Give the reported value of kon for this record: anti-mutCALR antibody clone 32 (antibody, human IgG1, lambda, V domains shown, human IgG1) VH: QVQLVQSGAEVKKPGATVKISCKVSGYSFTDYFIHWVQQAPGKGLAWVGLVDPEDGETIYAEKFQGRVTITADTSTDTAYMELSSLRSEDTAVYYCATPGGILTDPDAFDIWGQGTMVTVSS VL: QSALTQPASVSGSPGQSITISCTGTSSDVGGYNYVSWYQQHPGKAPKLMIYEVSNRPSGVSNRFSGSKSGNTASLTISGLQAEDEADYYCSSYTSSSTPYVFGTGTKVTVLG
Response: 1.36e+06

Query: Give the reported value of kon for this record: anti-mutCALR antibody clone 39 (antibody, human IgG1, kappa, V domains shown, human IgG1) VH: EVQLVQSGAEVKKPGSSVKVSCKASGGTFSSYAISWVRQAPGQGLEWMGLVDPEDGETIYAEKFQGRVTITADTSTDTAYMELSSLRSEDTAVYYCATEESYGPWGQGTLVTVSS VL: DIQLTQSPSSLSASVGDRVTITCQASQDISNYLDWYQQKPGKAPKLLIYDASNLETGVPSRFSGSGSGTEFTLTISSLQPEDFATYYCQQLNSYPLTFGGGTKLEIKR
Response: 322000

Query: Give the reported value of kon for this record: anti-mutCALR antibody clone 12 (antibody, human IgG1, lambda, V domains shown, human IgG1) VH: EVQLVQSGAEVKKPGASVKVSCKVSGYTLTELSMQWVRQAPGKGLEWMGGFDPDGGETMYAEKFQGRLTVTEDTSTDTVYMELRSLTSEDTALYFCATSPGYDFFDYWGQGTLVTVSS VL: SYVLTQPPSVSVAPGQTARVSCGGNNIGSKSVNWYRQKPGQAPVLVIYDDSDRPSGIPERFSGSNSGNTATLTINRVEAGDEADYYCQVWDSSNDLLIFGGGTKLTVLG
Response: 589000
